Measured Emax, listed per entry.
tested on: primary human mesenchymal stem cells (hMSCs); test: Induction of chondrogenesis in hMSCs (nodule count, Rhodamine B/Nile Red); assay type: cell-based; settings: 6 days, relative to TGF-β3 (10 ng/mL) positive control, read-out: Max. Activity as % TGF-β3 activity
Number first, unit second.

Known results for molecules:
Fc1ccc(-c2cncc3[nH]c(-c4n[nH]c5cnc(-c6cncnc6)cc45)cc23)cc1 [Compound 55] ... 81%
Fc1cccc(-c2cncc3[nH]c(-c4n[nH]c5cnc(-c6cncnc6)cc45)cc23)c1 [Compound 27] ... 56%
CN(C)Cc1cncc(-c2cc3c(-c4cc5c(-c6ccccc6F)cncc5[nH]4)n[nH]c3cn2)c1 [Compound 69] ... 54%
Nc1cncc(-c2cc3c(-c4cc5c(-c6ccncc6)cncc5[nH]4)n[nH]c3cn2)c1 [Compound 115] ... 52%
CC(C)C(=O)Nc1cncc(-c2cc3c(-c4cc5c(-c6cccc(F)c6)cncc5[nH]4)n[nH]c3cn2)c1 [Compound 9] ... 42%
Fc1ccc(-c2cncc3[nH]c(-c4n[nH]c5cnc(-c6cncc(CN7CCC(F)(F)C7)c6)cc45)cc23)cc1 [Compound 54] ... 78%

What does the data say about its Emax? Entry: c1cncc(-c2cc3c(-c4cc5c(-c6cccnc6)cncc5[nH]4)n[nH]c3cn2)c1 [Compound 88]
76%
